Each record here notes measured cell viability.
System: Caco-2
assayComment: cell viability relative to DMSO; higher = less toxic
conditionParameters: 72 h; 1 nM
Provide only the numeric value, understood in %.

Here are 4 molecules together with their reported answers.
structureNotation: CC(C)COC(=O)c1ccc(N)cc1
cell viability [%]: 100
//
structureNotation: CN(c1ccccc1CNc1nc(Nc2ccc3c(c2)CC(=O)N3)ncc1C(F)(F)F)S(C)(=O)=O
cell viability [%]: 92.4
//
structureNotation: O=C1CN=C(c2cccc(Br)c2)c2oc3ccccc3c2N1
cell viability [%]: 101
//
structureNotation: CCOC(=O)c1ccc(NC2CCCCC2)c(N)c1
cell viability [%]: 99.8

API: the following record is the query input.
Incoming: State its cell viability: CN1CCN(CCCN2c3ccccc3Sc3ccc(Cl)cc32)CC1
Outgoing: 100
